Reference source for all entries: ChEMBL document CHEMBL1138725

- Test Method Notes: Half-life was determined in rats at a single dose of 10 mg/kg i.v. and p.o.
- Type: ADME, organism-based
- Set-up: dose 10 mg/kg, route oral
- Experimental Conditions: rat, in vivo, po
Experimental Endpoint: half-life (h)
One number for each entry, in h.

The compound listed as `Cc1cc(Nc2ncc(C(=O)Nc3c(C)cccc3Cl)s2)nc(C)n1` has a reported half-life of 4

====

- Test Target: Cyclin-dependent kinase 2 (Homo sapiens, UniProt P24941)
pIC50: −log10 of the molar value.
Experimental Endpoint: pIC50

The compound listed as `Cc1cc(Nc2ncc(C(=O)Nc3c(C)cccc3Cl)s2)nc(C)n1` has a reported pIC50 of < 4.60

====

- Test Method Notes: Inhibitory activity against Fibroblast growth factor receptor 1
Experimental Endpoint: IC50

The compound listed as `Cc1cc(Nc2ncc(C(=O)Nc3c(C)cccc3Cl)s2)nc(C)n1` has a reported IC50 of > 10 µM

====

- Test Target: Tyrosine-protein kinase JAK3 (Homo sapiens)
- Sequence (P52333 whole entry): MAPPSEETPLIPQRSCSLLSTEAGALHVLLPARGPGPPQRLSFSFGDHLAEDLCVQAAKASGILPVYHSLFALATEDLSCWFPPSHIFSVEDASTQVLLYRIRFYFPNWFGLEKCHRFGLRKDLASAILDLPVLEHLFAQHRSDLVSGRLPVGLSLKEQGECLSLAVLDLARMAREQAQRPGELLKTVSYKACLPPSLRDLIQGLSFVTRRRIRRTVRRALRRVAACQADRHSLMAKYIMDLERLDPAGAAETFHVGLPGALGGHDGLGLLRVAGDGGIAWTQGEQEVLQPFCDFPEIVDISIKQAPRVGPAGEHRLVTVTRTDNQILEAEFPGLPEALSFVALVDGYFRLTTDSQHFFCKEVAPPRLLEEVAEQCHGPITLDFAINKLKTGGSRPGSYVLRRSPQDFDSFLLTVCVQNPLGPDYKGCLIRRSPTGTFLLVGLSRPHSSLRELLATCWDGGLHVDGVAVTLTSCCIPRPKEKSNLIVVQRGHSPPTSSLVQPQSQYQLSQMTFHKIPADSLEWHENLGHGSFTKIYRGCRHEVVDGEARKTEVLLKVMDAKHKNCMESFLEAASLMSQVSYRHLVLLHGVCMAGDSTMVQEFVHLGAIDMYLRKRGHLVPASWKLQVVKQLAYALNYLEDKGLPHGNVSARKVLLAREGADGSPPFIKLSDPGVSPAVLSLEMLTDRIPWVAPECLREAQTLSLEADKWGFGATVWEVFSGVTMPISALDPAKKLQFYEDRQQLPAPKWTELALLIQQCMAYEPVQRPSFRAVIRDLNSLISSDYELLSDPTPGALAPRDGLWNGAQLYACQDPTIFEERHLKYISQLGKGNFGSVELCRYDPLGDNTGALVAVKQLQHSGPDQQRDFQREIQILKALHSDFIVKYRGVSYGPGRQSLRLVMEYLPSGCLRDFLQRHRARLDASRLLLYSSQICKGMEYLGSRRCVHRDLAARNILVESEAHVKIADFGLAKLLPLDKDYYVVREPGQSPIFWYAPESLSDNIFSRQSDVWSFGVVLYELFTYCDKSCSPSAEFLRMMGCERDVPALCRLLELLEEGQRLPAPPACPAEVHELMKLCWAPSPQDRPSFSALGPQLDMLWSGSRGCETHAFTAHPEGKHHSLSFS
Experimental Endpoint: IC50 (nM)
Answers are plain numbers, in nM.

The compound listed as `Cc1cc(Nc2ncc(C(=O)Nc3c(C)cccc3Cl)s2)nc(C)n1` has a reported IC50 of 6

====

- Test Method Notes: Mean residence time was determined in rats at a single dose of 10 mg/kg i.v. and p.o.
- Type: ADME, organism-based
- Set-up: dose 10 mg/kg, route oral
- Experimental Conditions: rat, in vivo, po
Experimental Endpoint: MRT (h)
Give bare numbers, in h.

The compound listed as `Cc1cc(Nc2ncc(C(=O)Nc3c(C)cccc3Cl)s2)nc(C)n1` has a reported MRT of 4

====

- Test Method Notes: In vitro inhibitory activity against recombinant p56 lck tyrosine kinase expressed as a His-tagged protein in insect cells
Experimental Endpoint: Ki
# do not omit the unit; it follows the number

# Smiles Input, Endpoint Value
measured = [
    ("Cc1cccc(Cl)c1NC(=O)c1cnc(Nc2cc(NCCN3CCCC3)ncn2)s1", "60 pM"),
]

The compound listed as `Cc1cc(Nc2ncc(C(=O)Nc3c(C)cccc3Cl)s2)nc(C)n1` has a reported Ki of 130 pM
